# target.entity: Solute carrier family 12 member 5 (Homo sapiens)
# assay.notes: KCC2 modulators in sodium-free buffer, confirmation, cell-based, HEK293 KCC2, thallium flux, secondary assay (AID 1713)
# measurement.context: FluoZin2 fluorescence, at 10 µM
The list shows a part of the results. Results filed as inconclusive are left out. Activity calls are given as the source filed them.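 Rule for the calls: active = thallium flux slope above the same plate's solvent-only control mean plus 3 SD; inconclusive = the two replicate wells disagree; inactive = no significant difference from solvent-only control wells.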
Outcome codes: active, inactive

compound	target.entity	class.assignment
O=C(Nc1ccn(Cc2ccccc2)n1)c1cccc(F)c1	Solute carrier family 12 member 5 (Homo sapiens)	inactive
O=S(=O)(c1ccc(F)cc1)N1CCN(C(=S)NCc2ccco2)CC1	Solute carrier family 12 member 5 (Homo sapiens)	inactive
Oc1c(C=Nc2cccc3nsnc23)ccc2ccccc12	Solute carrier family 12 member 5 (Homo sapiens)	inactive
Oc1c(Cl)cc(Cl)c(Cl)c1Cc1c(O)c(Cl)cc(Cl)c1Cl	Solute carrier family 12 member 5 (Homo sapiens)	inactive
Cc1ccccc1NC(=S)NNC(=O)c1cccc(Br)c1	Solute carrier family 12 member 5 (Homo sapiens)	inactive
CS(=O)(=O)c1sc(C(=O)NC(=S)Nc2ccc(OC(F)(F)F)cc2)c2c1C=CCC2	Solute carrier family 12 member 5 (Homo sapiens)	inactive
CCCCC(CC)CNC(=O)C(=O)C1C(=O)Nc2ccccc21 (stereo unspecified)	Solute carrier family 12 member 5 (Homo sapiens)	inactive
COc1ccc(NC(=O)c2ccccc2[N+](=O)[O-])cc1OC	Solute carrier family 12 member 5 (Homo sapiens)	inactive
COC(=O)c1sccc1NC(=O)CCC1CCCC1	Solute carrier family 12 member 5 (Homo sapiens)	inactive
CCc1c(SCCC(=O)O)nc2ccccc2c1C	Solute carrier family 12 member 5 (Homo sapiens)	inactive
COc1ccc(Cl)cc1S(=O)(=O)Nc1cccc(C(=O)O)c1	Solute carrier family 12 member 5 (Homo sapiens)	inactive
Cc1ccc(NCc2n[nH]c(=S)n2-c2ccccc2)cc1Cl	Solute carrier family 12 member 5 (Homo sapiens)	inactive
Cc1ccc(OCc2n[nH]c(=S)n2-c2ccc(C)cc2)cc1	Solute carrier family 12 member 5 (Homo sapiens)	inactive
O=c1c2ccccc2[nH]c(=S)n1CCN1CCC(=C(c2ccc(F)cc2)c2ccc(F)cc2)CC1	Solute carrier family 12 member 5 (Homo sapiens)	inactive
O=C(N/N=C/c1ccc(Br)o1)c1cncc(Br)c1	Solute carrier family 12 member 5 (Homo sapiens)	active
COc1cc(OC)cc(C(=O)NCCSCc2ccco2)c1	Solute carrier family 12 member 5 (Homo sapiens)	inactive
N=c1oc2ccccc2cc1C(=O)N/N=C/c1ccccc1	Solute carrier family 12 member 5 (Homo sapiens)	active
CCCC(=O)N1c2ccccc2NC2=C(C(=O)CCC2)C1c1ccc(F)cc1 (stereo unspecified)	Solute carrier family 12 member 5 (Homo sapiens)	inactive
C=CCn1c(=S)[nH]c2scc(-c3ccco3)c2c1=O	Solute carrier family 12 member 5 (Homo sapiens)	active
O=C(Nc1nnc(-c2ccccc2)o1)c1cc(-c2cccs2)nc2ccccc12	Solute carrier family 12 member 5 (Homo sapiens)	active
COc1ccc(-n2c(=S)[nH]c3sc4c(c3c2=O)CCc2ccccc2-4)cc1	Solute carrier family 12 member 5 (Homo sapiens)	active
CC(=O)NNC(=O)c1csc(Cc2c(Cl)sc3ccc(Cl)cc23)n1	Solute carrier family 12 member 5 (Homo sapiens)	inactive
CCn1c(SCc2ccccc2)nc2c(c1=O)SCC2	Solute carrier family 12 member 5 (Homo sapiens)	inactive
CCn1c(SCC(=O)c2ccc3ccccc3c2)nnc1-c1cccs1	Solute carrier family 12 member 5 (Homo sapiens)	inactive
O=C(O)CCN(Cc1ccccc1)S(=O)(=O)c1c(Cl)cccc1Cl	Solute carrier family 12 member 5 (Homo sapiens)	inactive
Cc1ccc(N2C(=O)C(Cc3ccccc3)NC2=S)cc1 (stereo unspecified)	Solute carrier family 12 member 5 (Homo sapiens)	inactive
CC1Cc2ccccc2N1C(=O)CSc1nc2ccccc2o1 (stereo unspecified)	Solute carrier family 12 member 5 (Homo sapiens)	inactive
O=C(O)CS/C(=C\c1ccc(F)cc1)c1nc2ccccc2s1	Solute carrier family 12 member 5 (Homo sapiens)	inactive
O=[N+]([O-])c1c(NCCO)cc(Sc2nc3ccccc3s2)c2nonc12	Solute carrier family 12 member 5 (Homo sapiens)	active
Brc1ccc(C2=CC(c3ccco3)n3ncnc3N2)cc1 (stereo unspecified)	Solute carrier family 12 member 5 (Homo sapiens)	active
O=C(Oc1c(-c2ccco2)oc2ccccc2c1=O)c1cccnc1	Solute carrier family 12 member 5 (Homo sapiens)	active
COc1ccc(CNC(=O)CCn2cccc2)cc1	Solute carrier family 12 member 5 (Homo sapiens)	inactive
Cc1cc(C)c2cc(CN(Cc3cccs3)Cc3nnnn3CC3CCCO3)c(=O)[nH]c2c1 (stereo unspecified)	Solute carrier family 12 member 5 (Homo sapiens)	inactive
O=C(Nc1nc2c(F)cc(F)cc2s1)C1COc2ccccc2O1 (stereo unspecified)	Solute carrier family 12 member 5 (Homo sapiens)	active
Cc1ccc(N=Cc2c(O)n(-c3nccs3)c(=O)c3ccccc23)c(C)c1	Solute carrier family 12 member 5 (Homo sapiens)	active
Cc1cccc(NS(=O)(=O)c2ccc(C)c(C(N)=O)c2)c1	Solute carrier family 12 member 5 (Homo sapiens)	inactive
COc1ccccc1N1CCN(C(=O)CSc2ncnc3c2cnn3-c2ccc(C)c(C)c2)CC1	Solute carrier family 12 member 5 (Homo sapiens)	inactive
COc1ccc(C(=O)NC(=S)NNC(=O)c2c(-c3ccccc3)noc2C)cc1	Solute carrier family 12 member 5 (Homo sapiens)	inactive
O=[N+]([O-])c1ccccc1/C=N/n1c(COc2ccccc2)n[nH]c1=S	Solute carrier family 12 member 5 (Homo sapiens)	inactive
CCOc1cccc(/C=N/N2C(=O)CSC2=S)c1O	Solute carrier family 12 member 5 (Homo sapiens)	inactive
CC(C)n1cnc2c(Nc3cccc(Cl)c3)nc(N(CCO)CCCO)nc21	Solute carrier family 12 member 5 (Homo sapiens)	inactive
NC(=O)NC(=O)CSc1nc2cc([N+](=O)[O-])ccc2n1-c1cccc(C(F)(F)F)c1	Solute carrier family 12 member 5 (Homo sapiens)	inactive
CCOc1ccc(NC(=O)CN(C)CC(=O)Nc2cccc(Cl)c2C)cc1OCC	Solute carrier family 12 member 5 (Homo sapiens)	inactive
COc1ccc2[nH]c(=S)cc(C)c2c1	Solute carrier family 12 member 5 (Homo sapiens)	inactive
CN1c2ccccc2-c2nc3ccccc3n2C1c1ccco1 (stereo unspecified)	Solute carrier family 12 member 5 (Homo sapiens)	inactive
NS(=O)(=O)c1ccc(NC(=S)NC(=O)c2cccnc2)cc1	Solute carrier family 12 member 5 (Homo sapiens)	inactive

====

# assay.notes: DUSP6 inhibitors restoring Erk phosphorylation by chemical complementation, primary imaging in DUSP6-transfected HeLa (AID 609)
# measurement.context: HeLa MKP-3 transfected, phospho-Erk imaging KS statistic; measured here: nuclear pErk red intensity z-score; at 10 µM; stronger effect = higher value; cells stimulated with TPA for 15 min
observation.type: z-score

compound	observation.type	recorded.value
CCCCNC(=O)c1cc2n(n1)C(C(F)(F)F)CC(c1ccccc1)N2 (centres undefined)	z-score	0.464
C=CCn1c(=S)[nH]c2nc3c(cc2c1=O)CCCC3	z-score	0.929
CCOC(=O)C1=C(C)N=C2SC(C)C(=O)N2C1c1ccc(OC(C)=O)c(OC)c1 (centres undefined)	z-score	1.33
CC1=C(/C=C/C(C)=C/C=C/C(C)=C/C(=O)O)C(C)(C)CCC1	z-score	-1.68
CC(=O)N1CCN(c2nc(CC(C)C)c3c(c2C#N)CCC3)CC1	z-score	-0.203
Nc1nc2ccc(OC(F)(F)F)cc2s1	z-score	-0.877
Cc1nnc(SCc2nc3ccccc3[nH]2)s1	z-score	-0.186
COC(=O)CN1C2(C#N)CCCCC2CC2CCCCC21C#N (centres undefined)	z-score	-0.0966
Cc1c(C(=O)O)c(=S)sn1CCOc1ccccc1	z-score	0.102
Cc1cc(C)nc(N(C#N)CC(=O)N(c2ccccc2)C(C)C)n1	z-score	2.33
CC(C[N+](C)(C)C)OC(N)=O (centres undefined)	z-score	-0.0176
Cc1cc2c(c(=O)n1Cc1cccnc1)C(c1ccccc1)C(C#N)=C(N)O2 (centres undefined)	z-score	-1.42
CCOc1ccccc1N1CCN(c2nc3ccccc3nc2C(C#N)C(=O)OC(C)C)CC1 (centres undefined)	z-score	0.236
COc1cccc(NC(=O)CC2SC(=Nc3ccccc3)NC2=O)c1 (centres undefined)	z-score	0.335
CN(C)C=C1C(=O)c2ccccc2C1=O	z-score	-0.0657
CC1(C)Cc2c(sc3c2C2=NCCN2C=N3)CS1	z-score	-1.08
CC(=O)[C@@]1(O)CC[C@H]2[C@@H]3C[C@H](C)C4=CC(=O)CC[C@]4(C)[C@H]3CC[C@@]21C	z-score	-1.54
Cc1ccccc1OCc1nc2ccccc2c(=O)n1NC(=O)c1ccco1	z-score	-1.53
CC1(C)CC(=O)C(C=NCC(O)c2ccccc2)=C(O)C1 (centres undefined)	z-score	0.572
COCCNc1oc(-c2ccc(C)cc2)nc1C#N	z-score	1.87
COc1ccc(OCC(O)Cn2c(Nc3cccc(C)c3)nc3c2c(=O)n(C)c(=O)n3C)cc1 (centres undefined)	z-score	-0.035
COC(=O)c1[nH]c(C)c(/C(O)=C2\C(=O)C(=O)N(CCN3CCOCC3)C2c2cccnc2)c1C (centres undefined)	z-score	-3.8
COc1ccccc1N1CCN(C2CCN(C(=O)c3cccs3)CC2)CC1	z-score	1.15
C=C(C)CN1CCN(c2c(CCC#N)c(C)c(C#N)c3nc4ccccc4n23)CC1	z-score	-0.345
COC(=O)C1=C(C)N=C2SC(C)C(=O)N2C1c1cccs1 (centres undefined)	z-score	-0.931
Cn1c(=O)c2c3c(sc2n2c(SCC(=O)c4ccc(Cl)cc4)nnc12)COC(C)(C)C3	z-score	-1.03
CC(C)C1=C2OC(N)=C(C#N)C(C#N)=C2C(C)CC1 (centres undefined)	z-score	0.759
COc1ccc2c(c1)[nH]c1c(=O)n(CC3CCCO3)cnc12 (centres undefined)	z-score	-1.36
Cc1cc(C)c(C#N)c(SCC(=O)N2CCN(Cc3ccccc3)CC2)n1	z-score	1.64
COC(=O)c1sc(NC(C)=O)c(C(=O)OC)c1C	z-score	-1.37
Cn1c(OCc2ccco2)nc2c1c(=O)n(Cc1ccc(Cl)c(Cl)c1)c(=O)n2C	z-score	-0.436
O=C1C2ON(c3ccccc3)C(c3cccnc3)C2C(=O)N1c1ccccc1 (centres undefined)	z-score	-0.133
OC[C@H]1O[C@@H](n2cnc3c(NC4CCCC4)ncnc32)[C@H](O)[C@@H]1O	z-score	-0.893
C[C@]12CCC(=O)C=C1CC[C@@H]1[C@@H]2C(=O)C[C@@]2(C)[C@H]1CC[C@]2(O)C(=O)CO	z-score	1.19
Cc1[nH]nc2c1C(CCc1ccccc1)C(C#N)=C(N)O2 (centres undefined)	z-score	1.34
COCCOCCOCCC(=O)NC1CC2CCC1(C)C2(C)C (centres undefined)	z-score	-0.476
CCOC(=O)C1=C(CSc2nc3c(cc2C#N)CCC3)OC(N)=C(C#N)C1c1ccccc1 (centres undefined)	z-score	-0.283
CCCOc1ccc(/C(O)=C2/C(=O)C(=O)N(CCN(C)C)C2c2ccc(OC)c(OC)c2)cc1 (centres undefined)	z-score	0.868
CCCCc1nc(NCCNC(=O)c2ccco2)c(C#N)c2c1CSC(C)(C)C2	z-score	0.0149
CC(C)c1nc2n[nH]c(N)c2c2c1CCC2	z-score	0.961
OCCN(CCO)c1nc(N2CCCCC2)c2nc(N(CCO)CCO)nc(N3CCCCC3)c2n1	z-score	0.61
CNC(=O)C1CC(=O)N(Cc2ccccc2)C(=Nc2ccc(OC)cc2)S1 (centres undefined)	z-score	1.34
CCOC(=O)c1sc2c(c1C)c(=O)c(C(=O)OCC)cn2CC	z-score	0.403
CC(C)(C)c1cccc(/C=N/O)c1O	z-score	-1.64

Each recorded value in this set is attributed to PubChem BioAssay.
